- TESTED_SYSTEM: T1, Abp1, P15891
- T1 sequence (P15891 535-592, looked up): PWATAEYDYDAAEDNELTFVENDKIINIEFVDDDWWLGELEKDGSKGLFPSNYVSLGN
- EXPERIMENT_SUMMARY: SPOT array
- MEASUREMENT_PARAMETERS: median of control spots 935
Mark fulfilled only when SPOT intensity stays strictly below 9. Values equal to the cut-off are not fulfilled.

# BINDER, CLASS
measured = [
    ("FYNRTAFQLPGDARV", "fulfilled"),
    ("PALPSLPPPPLLNVD", "fulfilled"),
    ("DAPASKPSVPPRNYF", "not fulfilled"),
    ("MARRRLPDRPPNGIG", "not fulfilled"),
]

Now turn to the next binder.
Ask: Threshold test, SPOT intensity < 9: "LYKRKPILLPDPKPL"
Reply: not fulfilled

Values compiled from paper PMC2756588.
